biological target: mutant MGL (Homo sapiens, UniProt Q99685, L169S/L176S); assay: MGL ThermoFluor assay - mutant; assay type: binding; conditions: ThermoFluor concentration-response, read-out: MGL mutant ThermoFluor Kd
Sequence (Q99685 whole entry L169S/L176S): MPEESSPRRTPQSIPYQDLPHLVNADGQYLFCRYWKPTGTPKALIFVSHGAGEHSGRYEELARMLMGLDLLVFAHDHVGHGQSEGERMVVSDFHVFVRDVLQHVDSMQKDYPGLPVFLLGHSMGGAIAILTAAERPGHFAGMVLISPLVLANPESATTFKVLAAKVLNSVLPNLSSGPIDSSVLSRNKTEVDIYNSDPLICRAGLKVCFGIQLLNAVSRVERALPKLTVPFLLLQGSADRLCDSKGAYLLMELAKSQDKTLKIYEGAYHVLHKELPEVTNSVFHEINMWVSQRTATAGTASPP
API: label(entry) gives true (1) if the entry's Kd is strictly smaller than 70 nM; on equality or larger values it gives false (0).

Compound: O=C(c1ccc2c(cnn2-c2ccccc2)c1)N1CC(N2CCN(C(=O)c3cscn3)CC2)C1
Classification: false (0)
//
Compound: O=C(c1cscn1)N1CCN(C2CN(C(=O)c3sc4ccc(Cl)cc4c3C(F)(F)F)C2)CC1
Classification: true (1)
//
Compound: O=C(c1ccc(Oc2ncc(C(F)(F)F)cc2Cl)cc1)N1CC(N2CCN(C(=O)c3nccs3)CC2)C1
Classification: true (1)
//
Compound: Cc1ccc2sc(C(=O)N3CC(N4CCN(C(=O)c5nccs5)CC4)C3)c(C(F)(F)F)c2c1
Classification: true (1)
//
Compound: O=C(c1ccc(-c2ccccc2)cc1)N1CCN(C2CN(C(=O)c3ccc[nH]3)C2)CC1
Classification: false (0)
//
Compound: O=C(c1nccs1)N1CC(N2CCN(C(=O)c3cc4cc(C(F)(F)F)ccc4s3)C(c3ccccc3)C2)C1 (centres unmarked)
Classification: false (0)
//
Compound: O=C(c1cscn1)N1CCN(C2CN(C(=O)c3cc4ccc(C(F)(F)F)cc4[nH]3)C2)CC1
Classification: false (0)
//
Compound: O=C(c1csc(-c2cc(Cl)cc(Cl)c2)n1)N1CC(N2CCN(C(=O)c3nccs3)CC2)C1
Classification: false (0)
